Experiment: DPPH assay (antioxidant activity, free radical scavenging)
Format: biochemical
Conditions: 5 concentrations, 0.1 mM DPPH, water:methanol 1:1, reading after 30 min at 518 nm, read-out: IC50, the point at which 50% of DPPH had been reduced
Metric Name: IC50 (µM)

| Molecule | Metric Name | Measured Value |
| --- | --- | --- |
| Cc1c(C)c2c(c(C)c1O)CC[C@@](C)(CCC[C@H](C)CCC[C@H](C)CCCC(C)C)O2 [alpha-tocopherol] | IC50 | 24.4 |
| COC(=O)C(Cc1c[nH]cn1)NC(=O)CCNC(=O)CCCCCCCCCCCC[C@]1(C)CCc2c(C)c(O)c(C)c(C)c2O1 (some centres unmarked) [VECAR] | IC50 | 24.9 |
